B1: glmS ribozyme (parent)
chain: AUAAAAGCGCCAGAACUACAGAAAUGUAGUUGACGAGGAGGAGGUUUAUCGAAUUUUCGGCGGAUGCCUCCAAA

Variants of: B1
protocol.summary: self-cleavage kobs at 640 uM GlcN6P; higher = faster cleavage; RNA array
assay.conditions: with glucosamine-6-phosphate
This sample holds only a part of the variants without activity.
test.readout: self-cleavage kobs at 640 uM GlcN6P

// worked examples, self-cleavage kobs at 640 uM GlcN6P included
Consider the variant shown here: C8G G13C G59A U69G What is its recorded self-cleavage kobs at 640 uM GlcN6P?
< 1e-05 s⁻¹

Same lookup for A33U C50U C61A C68G C70U , please.
0.000229 s⁻¹

Same lookup for A14U C16G G35U A36U G38U U56C U57G G60U , please.
< 1e-05 s⁻¹

Same lookup for U45A C67G , please.
0.000163 s⁻¹

Same lookup for C19A U54C C58A C68G , please.
9.88e-05 s⁻¹

Same lookup for C11G C58A C68A , please.
0.000165 s⁻¹

Same lookup for A15G C16U C67U , please.
0.000521 s⁻¹

Same lookup for C8G A14U A42G , please.
< 1e-05 s⁻¹

Same lookup for G29U C71U , please.
0.000578 s⁻¹

Same lookup for G29C U56C , please.
0.000147 s⁻¹

Now for the variant whose self-cleavage kobs at 640 uM GlcN6P we want.
Consider the variant shown here: A39U G44U U47C G51U What is its recorded self-cleavage kobs at 640 uM GlcN6P?
< 1e-05 s⁻¹
